Target: human F508del-CFTR (Homo sapiens, UniProt P13569, DEL508-508)
Sequence (P13569 with tags, fused parts or gaps DEL508-508): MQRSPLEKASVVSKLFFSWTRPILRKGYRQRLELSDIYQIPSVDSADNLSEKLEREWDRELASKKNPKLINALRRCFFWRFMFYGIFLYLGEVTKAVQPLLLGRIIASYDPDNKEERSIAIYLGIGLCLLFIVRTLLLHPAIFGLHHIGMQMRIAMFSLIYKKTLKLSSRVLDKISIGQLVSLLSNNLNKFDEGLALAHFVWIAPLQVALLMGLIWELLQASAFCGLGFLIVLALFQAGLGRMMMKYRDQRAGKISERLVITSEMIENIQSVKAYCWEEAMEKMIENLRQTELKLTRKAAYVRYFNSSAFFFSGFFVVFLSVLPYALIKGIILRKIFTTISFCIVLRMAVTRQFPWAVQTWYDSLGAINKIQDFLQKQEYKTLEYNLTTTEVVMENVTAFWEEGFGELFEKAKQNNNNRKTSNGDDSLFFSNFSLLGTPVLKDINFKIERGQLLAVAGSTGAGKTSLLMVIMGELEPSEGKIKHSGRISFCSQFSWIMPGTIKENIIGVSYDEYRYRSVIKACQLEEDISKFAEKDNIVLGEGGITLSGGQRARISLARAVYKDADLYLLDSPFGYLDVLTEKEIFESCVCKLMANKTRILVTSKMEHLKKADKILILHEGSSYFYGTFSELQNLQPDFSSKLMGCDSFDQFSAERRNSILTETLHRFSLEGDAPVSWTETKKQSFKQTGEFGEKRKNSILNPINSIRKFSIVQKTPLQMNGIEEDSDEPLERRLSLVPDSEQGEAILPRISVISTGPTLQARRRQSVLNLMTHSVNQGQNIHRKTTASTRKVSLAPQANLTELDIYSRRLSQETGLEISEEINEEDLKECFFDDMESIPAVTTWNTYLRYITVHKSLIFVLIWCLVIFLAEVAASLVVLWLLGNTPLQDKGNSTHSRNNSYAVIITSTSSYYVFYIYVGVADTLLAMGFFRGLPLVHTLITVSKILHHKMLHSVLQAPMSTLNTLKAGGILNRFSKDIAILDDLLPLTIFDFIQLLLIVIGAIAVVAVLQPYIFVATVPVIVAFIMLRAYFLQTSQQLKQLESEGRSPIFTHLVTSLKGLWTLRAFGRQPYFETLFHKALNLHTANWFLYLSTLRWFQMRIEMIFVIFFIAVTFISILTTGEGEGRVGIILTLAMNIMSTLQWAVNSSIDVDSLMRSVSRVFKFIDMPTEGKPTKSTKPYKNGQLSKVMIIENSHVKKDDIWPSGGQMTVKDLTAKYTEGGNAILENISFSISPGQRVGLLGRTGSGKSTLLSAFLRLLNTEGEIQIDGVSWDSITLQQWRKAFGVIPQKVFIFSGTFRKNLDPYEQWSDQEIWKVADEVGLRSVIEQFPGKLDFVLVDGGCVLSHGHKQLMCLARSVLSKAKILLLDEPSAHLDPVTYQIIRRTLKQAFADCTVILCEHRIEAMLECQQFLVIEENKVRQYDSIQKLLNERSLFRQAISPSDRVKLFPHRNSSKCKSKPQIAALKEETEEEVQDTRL
Test: F508del-CFTR cell surface expression (corrector activity), DiscoveRx ß-galactosidase complementation chemiluminescence assay in recombinant U2OS cell line;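 also: U2OS cells co-expressing ProLink-tagged F508del-CFTR and a membrane-anchored enzyme acceptor, where more surface CFTR restores β-galactosidase activity measured by chemiluminescence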
Conditions: EC50, F508del-CFTR cell surface expression, U2OS cell line, 16h compound incubation; geomean values
measuredQuantity: EC50
State the value, then name its unit.

compound | measuredQuantity | observedValue
COc1cc2c(cc1OC)C(=O)N[C@H](C(=O)NCCc1ccc3c(c1)OCO3)CC(=O)N(C)[C@@H](CC(C)C)C(=O)N(C[C@H]1CCCCO1)CC(=O)N[C@H](Cc1ccccc1)CO2 [Example 159] | EC50 | 0.385 µM

Please state EC50 for every compound in the list that follows.
1. COCCCN1C(=O)[C@H](CC(C)C)N(C)C(=O)C[C@@H](C(=O)NCCc2cccc(OC)c2)NC(=O)c2c(ccc3ccccc23)OC[C@@H](Cc2ccccc2)NC(=O)C12CC2 [Example 396]
2. COc1cccc(CCNC(=O)[C@@H]2CC(=O)N(C)[C@@H](CC(C)C)C(=O)N3CCN(C4CC4)C[C@@H]3C(=O)N[C@H](Cc3ccccc3)COc3cnc4ccccc4c3C(=O)N2)c1 [Example 389]
3. COc1cccc(CCNC(=O)[C@@H]2CC(=O)N(C)[C@@H](CC(C)C)C(=O)N3CCN(C4CC4)C[C@@H]3C(=O)N[C@H](Cc3ccccc3)COc3ccc4ncn(C)c4c3C(=O)N2)c1 [Example 348]
4. CC(C)C[C@H]1C(=O)N2CCCC[C@@H]2C(=O)N[C@H](Cc2ccccc2)COc2cnc3ccccc3c2C(=O)N[C@H](C(=O)NCCc2c(F)cc(F)cc2F)CC(=O)N1C [Example 73]
5. COc1cc(CCNC(=O)[C@@H]2CC(=O)N(C)[C@@H](CC(C)C)C(=O)N3CCOC[C@@H]3C(=O)N[C@H](Cc3ccccc3)COc3ccc4ccccc4c3C(=O)N2)cc(OC)c1 [Example 325]

Reply:
["0.241 µM", "0.115 µM", "0.34 µM", "0.214 µM", "0.187 µM"]
